- target.under.test: UCHL1 (Homo sapiens, UniProt P09936)
- Sequence (P09936 whole entry, species assumed): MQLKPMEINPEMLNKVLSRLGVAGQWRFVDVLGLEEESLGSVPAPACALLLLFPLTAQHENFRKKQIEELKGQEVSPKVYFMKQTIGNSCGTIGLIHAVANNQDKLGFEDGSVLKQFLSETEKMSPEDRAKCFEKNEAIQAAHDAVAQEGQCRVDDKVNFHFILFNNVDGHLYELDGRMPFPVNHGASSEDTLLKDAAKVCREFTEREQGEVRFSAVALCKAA
- test: UCHL1 activity assay (Ub-Rho-Morpholine or Ub-AMC substrate)
- Assay type: biochemical
- study.conditions: UCHL1 1 nM, 1 h preincubation; read-out: UbRhoMP assay UCHL1 IC50
assay.endpoint: IC50 (µM)
Express your answer in µM, writing the number without its unit.

State the recorded IC50 for this entry: `CC[N+]1=C(/C=C/C=C/C=C2/N(CCCCCC(=O)NCCCc3cn(CC(=O)N4CCc5nc(NC(=O)[C@@H]6CCN(C#N)C6)sc5C4)nn3)c3ccc(S(=O)(=O)O)cc3C2(C)C)C(C)(C)c2cc(S(=O)(=O)[O-])ccc21`
19.8

For the compound shown here, `N#CN1CC[C@@H](C(=O)Nc2nc3c(s2)CN(C(=O)CN=[N+]=[N-])CC3)C1` , give the reported IC50.
11.2

So what's the measured IC50 for this one? `CC1=CC(C)=[N+]2C1=C(CCCCc1cn(CC(=O)N3CCc4nc(NC(=O)[C@@H]5CCN(C#N)C5)sc4C3)nn1)c1c(C)cc(C)n1[B-]2(F)F`
23

Give its IC50 value. Item: `N#CN1CC[C@@H](C(=O)Nc2nc3c(s2)CN(C(=O)Cn2cc(CCCNC(=O)c4ccc(-c5c6ccc(=N)cc-6oc6cc(N)ccc56)c(C(=O)O)c4)nn2)CC3)C1`
18.5
